- test target: Ubiquitin-activating enzyme e1, putative (Leishmania donovani (strain BPK282A1), UniProt E9BSI1)
- Sequence (E9BSI1 whole entry): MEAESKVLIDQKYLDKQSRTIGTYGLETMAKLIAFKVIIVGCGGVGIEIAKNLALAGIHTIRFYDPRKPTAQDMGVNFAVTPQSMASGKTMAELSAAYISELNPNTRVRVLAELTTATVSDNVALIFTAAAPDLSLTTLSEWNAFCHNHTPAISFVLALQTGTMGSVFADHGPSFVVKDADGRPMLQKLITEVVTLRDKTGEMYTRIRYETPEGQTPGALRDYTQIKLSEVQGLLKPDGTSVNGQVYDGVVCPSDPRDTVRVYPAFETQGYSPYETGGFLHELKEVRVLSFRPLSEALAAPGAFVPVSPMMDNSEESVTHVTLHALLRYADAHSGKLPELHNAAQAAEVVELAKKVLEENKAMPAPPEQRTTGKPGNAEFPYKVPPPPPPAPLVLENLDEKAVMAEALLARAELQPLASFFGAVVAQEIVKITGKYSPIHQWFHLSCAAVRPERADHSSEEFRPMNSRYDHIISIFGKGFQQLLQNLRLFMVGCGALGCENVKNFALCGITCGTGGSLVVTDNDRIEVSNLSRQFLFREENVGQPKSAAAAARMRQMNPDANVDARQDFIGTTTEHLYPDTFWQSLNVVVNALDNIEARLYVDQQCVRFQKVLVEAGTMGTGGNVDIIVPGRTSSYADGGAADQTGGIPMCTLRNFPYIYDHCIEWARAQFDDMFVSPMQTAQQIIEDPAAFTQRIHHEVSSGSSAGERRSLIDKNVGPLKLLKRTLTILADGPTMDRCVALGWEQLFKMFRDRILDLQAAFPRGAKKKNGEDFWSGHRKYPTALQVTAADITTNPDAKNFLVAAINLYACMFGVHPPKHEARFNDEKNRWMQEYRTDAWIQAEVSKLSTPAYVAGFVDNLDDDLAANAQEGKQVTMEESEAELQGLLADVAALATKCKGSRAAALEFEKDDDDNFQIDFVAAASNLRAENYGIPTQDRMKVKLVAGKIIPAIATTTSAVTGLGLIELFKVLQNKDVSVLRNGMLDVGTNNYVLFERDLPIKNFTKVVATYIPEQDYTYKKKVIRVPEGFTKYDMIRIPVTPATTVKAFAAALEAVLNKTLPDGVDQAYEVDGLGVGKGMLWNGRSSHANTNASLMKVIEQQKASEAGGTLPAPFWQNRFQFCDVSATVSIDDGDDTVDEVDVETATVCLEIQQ
- assay method text: Leishmania donovani Ubiquitin Activating Enzyme (LdE1)
I'd appreciate it if you could supply IC50 values for the items below.

Example entries begin here.
INSERT INTO assay_data (compound, test_readout, assay_value) VALUES
  ('Cn1nc2c(cc1=O)CN(Cc1nnc(-c3ccc(F)cc3)o1)CC2', 'IC50', '> 100 µM'),
  ('CC(NC(=O)NCCNc1ncccn1)c1cccs1 (configuration not stated)', 'IC50', '> 100 µM'),
  ('COc1ccc(C2CC(=O)Nc3nc(N4CCOCC4)sc32)c(OC)c1 (configuration not stated)', 'IC50', '> 100 µM'),
  ('CC(C)C(NC(=O)NCCNc1ccccn1)c1cccs1 (configuration not stated)', 'IC50', '> 100 µM'),
  ('CC(O)CN1CCN(C(=O)c2ccc(N(C)C)nc2)CC1 (configuration not stated)', 'IC50', '> 100 µM');

List IC50 for every entry below, keeping the order given.
1. CCc1nc2n(n1)CC(NCc1nnc(C(C)C)o1)CC2 (configuration not stated)
2. CNS(=O)(=O)Cc1ccc(CNC(=O)Nc2cn[nH]c2)cc1
3. CNS(=O)(=O)c1ccc(CNC(=O)Nc2cn[nH]c2)cc1
4. CN(C)c1ccc(C(=O)N2CCN(CC(O)C(C)(C)C)CC2)nn1 (configuration not stated)
5. NC(=O)c1ccc(CNC(=O)Nc2cn[nH]c2)cc1
6. CC[C@H]1N(CC2CCC2)CCC[C@]12CCC(=O)N2Cc1ccncc1

Result:
1: > 100 µM; 2: > 100 µM; 3: > 100 µM; 4: > 100 µM; 5: > 100 µM; 6: > 100 µM
